Origin of measurements: patent US20230181521A1

Task for the reader: assign each of the following compounds its reported log10 microsomal CLint at 0.25 μM.
- METHOD_SUMMARY: Metabolic stability in human liver microsomes
- Format: in vitro ADME
- MEASUREMENT_CONDITIONS: pH 7.4, read-out: CLint (μL/min/mg protein)
- Procedure: Microsomal Assay: Human liver microsomes (20 mg/mL) were obtained. β-nicotinamide adenine dinucleotide phosphate, reduced form (NADPH), magnesium chloride (MgCl2), and dimethyl sulfoxide (DMSO) are purchased from Sigma-Aldrich. […] Data analysis: The in vitro T1/2s for test compounds are calculated from the slopes of the linear regression of % parent remaining (In) vs incubation time relationship. […]
Counter-ions that a name gives are not always drawn.
Quick note: numbers are log10 of microsomal CLint at 0.25 μM, with µL/min/mg as the unit.

Example entries and their recorded answers appear below.
>  <COMPOUND>
[2H]C1([2H])c2cc3c(cc2C([2H])([2H])C1([2H])N)OCO3 [Compound 5, hydrochloride]

>  <log10 microsomal CLint at 0.25 μM>
0.83

$$$$
>  <COMPOUND>
NC1Cc2cc3c(cc2C1)OCO3 [MDAI, 5,6-Methylenedioxy-2-aminoindane]

>  <log10 microsomal CLint at 0.25 μM>
0.83

$$$$
>  <COMPOUND>
[2H]C1([2H])Oc2cc3c(cc2O1)C([2H])([2H])C([2H])(N)C3([2H])[2H] [Compound 2, Hydrochloride]

>  <log10 microsomal CLint at 0.25 μM>
0.78

$$$$

Need log10 microsomal CLint at 0.25 μM for each of these compounds.
1. [2H]C1(N)Cc2cc3c(cc2C1([2H])[2H])OCO3 (racemic) [Compound 3, hydrochloride]
2. COc1ccc2c(c1)[C@]13CCCC[C@@H]1[C@H](C2)N(C)CC3 [dextromethorphan]
3. [2H]C1([2H])Oc2cc3c(cc2O1)C([2H])([2H])C([2H])(N)C3 (racemic) [Compound 4, hydrochloride]
4. [2H]C1([2H])Oc2cc3c(cc2O1)CC(N)C3 [Compound 1, Hydrochloride]

[0.49, 1.73, 0.46, 0.85]

====

- METHOD_SUMMARY: Metabolic stability in human liver microsomes
- Assay type: in vitro ADME
- MEASUREMENT_CONDITIONS: pH 7.4
Where a name gives a salt, the structure may show the parent alone.
READOUT_TYPE: half-life at 0.25 μM
Express the reported value numerically, then name its unit.

Before answering, review these 6 worked examples.
>  <COMPOUND>
[2H]C1([2H])Oc2cc3c(cc2O1)CC(N)C3 [Compound 1, Hydrochloride]

>  <half-life at 0.25 μM>
3.27 h

$$$$
>  <COMPOUND>
[2H]C1([2H])Oc2cc3c(cc2O1)C([2H])([2H])C([2H])(N)C3 (racemic) [Compound 4, hydrochloride]

>  <half-life at 0.25 μM>
7.97 h

$$$$
>  <COMPOUND>
[2H]C1([2H])c2cc3c(cc2C([2H])([2H])C1([2H])N)OCO3 [Compound 5, hydrochloride]

>  <half-life at 0.25 μM>
3.42 h

$$$$
>  <COMPOUND>
[2H]C1([2H])Oc2cc3c(cc2O1)C([2H])([2H])C([2H])(N)C3([2H])[2H] [Compound 2, Hydrochloride]

>  <half-life at 0.25 μM>
3.83 h

$$$$
>  <COMPOUND>
COc1ccc2c(c1)[C@]13CCCC[C@@H]1[C@H](C2)N(C)CC3

>  <half-life at 0.25 μM>
0.433 h

$$$$
>  <COMPOUND>
NC1Cc2cc3c(cc2C1)OCO3

>  <half-life at 0.25 μM>
3.42 h

$$$$

Now examine the next entry.
GET /values?readout=half-life at 0.25 μM&item= [2H]C1(N)Cc2cc3c(cc2C1([2H])[2H])OCO3 (racemic) [Compound 3, hydrochloride]
7.42 h
